Tested on: Venezuelan equine encephalitis virus
Test: Antiviral activity against Venezuelan equine encephalitis virus infected in human MRC5 cells assessed as virus induced cell death at 100 uM relative to control
Format: functional
reported property: Activity (%)

[[record]]
compound = "CCC(OCc1cn([C@@H]2O[C@H](CO)[C@@H](O)[C@H]2O)c(=O)[nH]c1=N)c1ccccc1 (stereo partly drawn)"
reported_property = "Activity"
unit_of_measure = "%"
obs_value = 8.31

[[record]]
compound = "O=c1[nH]c(=O)n([C@@H]2O[C@H](CO)[C@@H](O)[C@H]2O)cc1CO"
reported_property = "Activity"
unit_of_measure = "%"
obs_value = 11.71

[[record]]
compound = "CC(C)C(OCc1cn([C@@H]2O[C@H](CO)[C@@H](O)[C@H]2O)c(=O)[nH]c1=O)c1ccccc1 (stereo partly drawn)"
reported_property = "Activity"
unit_of_measure = "%"
obs_value = 9.09

[[record]]
compound = "N=c1[nH]c(=O)n([C@@H]2O[C@H](CO)[C@@H](O)[C@H]2O)cc1COCc1ccccc1"
reported_property = "Activity"
unit_of_measure = "%"
obs_value = 18.86

[[record]]
compound = "O=c1[nH]cc(COC(c2ccccc2)C2CCCCC2)c(=O)[nH]1 (stereo not drawn)"
reported_property = "Activity"
unit_of_measure = "%"
obs_value = 8.05

[[record]]
compound = "Cc1ccccc1C(OCc1cn([C@@H]2O[C@H](CO)[C@@H](O)[C@H]2O)c(=O)[nH]/c1=N\\O)C(C)(C)C (stereo partly drawn)"
reported_property = "Activity"
unit_of_measure = "%"
obs_value = 18.59

[[record]]
compound = "CC(OCc1cn([C@@H]2O[C@H](CO)[C@@H](O)[C@H]2O)c(=O)[nH]/c1=N\\O)c1ccccc1 (stereo partly drawn)"
reported_property = "Activity"
unit_of_measure = "%"
obs_value = 5.54

[[record]]
compound = "CC(OCc1cn([C@H]2O[C@H](CO)[C@@H](O)[C@H]2O)c(=O)[nH]c1=O)c1ccccc1 (stereo partly drawn)"
reported_property = "Activity"
unit_of_measure = "%"
obs_value = 25.09


Measured values drawn from ChEMBL document CHEMBL5365426 for this set.
